// data source = patent US20170088602A1

Molecular target: T1, human Activin A (R&D Systems) (human, UniProt P08476 311-426)
T1 sequence (looked up): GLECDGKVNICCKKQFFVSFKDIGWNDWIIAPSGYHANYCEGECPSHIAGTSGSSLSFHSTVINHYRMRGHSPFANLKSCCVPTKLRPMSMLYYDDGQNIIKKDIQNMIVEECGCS
Assay: cell-based or functional assay
MEASURED QUANTITY: ARE-luciferase IC50 (nM)
Answer format: numeric, nM implied, no suffix.

stdin: // fetch ARE-luciferase IC50 given entry ATI-1267 [N-ethylmaleimide] (designed binder, N-ethylmaleimide on the Cys of the EGSGC tail, cysteine mutant of 2525_D02) MGVSDVPRDLEVVAATPTSLLISWTLPHAGRAHYYRITYGETGGNSPVQEFTVPGRGVTATISGLKPGVDYTITVYAVTVTTTSVILYKPISINYRTEGSGCHHHHHH
stdout: 644
